Test system: Apolipoprotein B Secretion from HepG2 Cells
Assay: Inhibition of Apolipoprotein B secretion from HepG2 cells (ELISA)
Type: cell-based, human
Conditions: Homo sapiens, HepG2, HepG2 cells, 22-24 hours incubation, ApoB ELISA; Low/High IC50 columns give the 95% confidence interval
value type: IC50 (nM)

[
  {
    "compound": "CCOC(=O)C1(COC(=O)Cc2ccc(NC(=O)c3ccccc3-c3ccc(C(F)(F)F)cc3)c(C(=O)N(C)C)c2)c2ccccc2C(=O)N1CC(F)(F)F (racemic)",
    "value type": "IC50",
    "unit of measure": "nM",
    "result number": 2.73
  },
  {
    "compound": "CCOC(=O)C1(COC(=O)Cc2ccc(NC(=O)c3ccccc3-c3ccc(C(F)(F)F)cc3)c(C(=O)N(C)C)c2)CCc2cccnc21 (racemic)",
    "value type": "IC50",
    "unit of measure": "nM",
    "result number": 8.47
  },
  {
    "compound": "COC(=O)C1(COC(=O)Cc2ccc(NC(=O)c3ccccc3-c3ccc(C(F)(F)F)cc3)c(C(=O)N(C)C)c2)CCc2ccccc21 (racemic) [Example 28]",
    "value type": "IC50",
    "unit of measure": "nM",
    "result number": 3.17
  }
]
